- procedure_details: fixK promoter GFP reporter activation – B. multivorans, primary screen (AID 1918990)
- condition: 18 h, hits give high values
Out of some 29,000 compounds screened, about 85 (0.3%) were called active. For the sample, actives were picked, then their nearest neighbours and some compounds at random.
// label = class 1 if z-score is not less than -0.2, otherwise class 0

Tell me whether z-score is at least -0.2 here: COc1ccc(-c2nc3ccccc3o2)cc1NC(=O)c1cc([N+](=O)[O-])ccc1N1CCOCC1
class 0

Quick check, z-score >= -0.2? COc1cccc(Cn2c(SCc3ccc(C(=O)N4CCCCC4)cc3)nc3ccncc32)c1
class 0

Exam item: decide whether the reported z-score for COc1ccc(CNC(=O)c2cc3c(s2)-c2ccccc2OC3)cc1 is at least -0.2.
class 1

Evaluate CN1C(=O)c2[nH]nc(-c3ccc(F)cc3)c2C1c1ccccn1 (stereo not drawn) : z-score at minimum -0.2?
class 1

In plain terms: is recorded z-score at least -0.2 for Nc1ccnc(N2CCCC(c3[nH]ncc3-c3ccc(F)cc3)C2)n1 (stereo not drawn) ?
class 1

API: above_or_equal(metric=z-score, cutoff=-0.2) for item COC(=O)c1ccc(NC(=O)c2cccc3c2C(=O)N(C2CCCCC2)C3)cc1
class 1

* * *

- procedure_details: fixK promoter GFP reporter activation – B. multivorans, primary screen (AID 1918990)
- condition: 18 h, hits give high values
Hit rate of the full screen: of about 29,000 compounds, about 85 (0.3%) were called active. The full list was thinned out, with actives kept by preference.
For each of the compounds below, state its z-score.
Answers are plain numbers.

Field: example entries. Status: answers known.
[
  {
    "compound": "COc1ccc(CNC(=O)Cc2coc3ccc(C(C)C)cc23)cc1",
    "z-score": -1.14
  },
  {
    "compound": "CC(C)c1nnsc1C(=O)Nc1ccc(CC(=O)NC2CC2)cc1",
    "z-score": -0.11
  },
  {
    "compound": "CC(Cn1cccn1)NC1CCN(C(=O)c2cccnc2)CC1 (stereo unspecified)",
    "z-score": -2
  },
  {
    "compound": "Cc1ccc(C(=O)NCCc2nc(N)cc(=O)[nH]2)n1C(F)F",
    "z-score": -0.52
  },
  {
    "compound": "COc1ccc(CNc2nc(-c3ccccc3)nn2C(=O)c2ccccc2OC)cc1",
    "z-score": 0.5
  }
]

// each compound listed below needs its z-score
1. COc1c(Cl)cc(C(=O)N(Cc2ccccc2F)C2CCS(=O)(=O)C2)cc1Cl (stereo unspecified)
2. O=C(NC1CCCCC1)c1ccc2c(c1)N(Cc1ccc(Cl)cc1)C(=O)c1ccccc1S2=O (stereo unspecified)
3. COc1cccc(CNC(=O)CCC(=O)N2CC3CCCN3c3ccccc32)c1 (stereo unspecified)
4. COCCNC(=O)c1cc(-c2cccc(Cl)c2)on1

-0.89
0.06
-0.45
1.09

Look up z-score for the entries below, preserving their order.
1. Cc1ccc(OCC(=O)NC(c2ccc3c(c2)CCO3)C2CC(O)C2)cc1 (stereo unspecified)
2. COc1ccc(NC(=O)CNC(=O)Cn2ccc3ccccc3c2=O)c(OC)c1
3. COc1ncccc1NC(=O)NCc1nncn1C1CCCCC1
4. CCCc1cc(CNC(=O)c2ccc3c(c2)OCC(=O)N3)on1
5. COc1cc2c(=O)c(S(=O)(=O)c3ccc(C(C)C)cc3)cn(Cc3ccccc3C)c2cc1OC
6. O=C(c1n[nH]c2ccccc12)N1CCc2nc(-c3cccc(F)c3)[nH]c2C1

1. 0.72
2. -2.14
3. 0.26
4. 0.27
5. 0.3
6. -1.33

Give one value of z-score per listed compound.
1. CC(C)S(=O)(=O)c1oc(-c2ccc(F)cc2)nc1S(=O)(=O)c1ccc(F)cc1
2. Cc1nc2c(-c3ccccc3)c(C)nn2c(C)c1CCC(=O)NCCc1ccccc1
3. COc1ccccc1CNC(=O)CCn1c(=O)c2ccccc2n(CC(=O)Nc2cccc(Cl)c2)c1=O
4. Cc1nc2nc(SCC(=O)N(Cc3ccccc3)C(C)C)nn2c(C)c1Cc1ccccc1Cl

1. -3.54
2. -0.95
3. 0.27
4. -2.35

Below are some compounds; for each one, tell me its z-score.
1. CCOc1ccc2nc(N3CCC(C(=O)Nc4cc(C)ccc4C)CC3)sc2c1
2. COc1cc2nc(NCC(C)c3ccccc3)n3nc(-c4ccccc4)nc3c2cc1OC (stereo unspecified)

[-0.96, -0.67]

* * *

- procedure_details: fixK promoter GFP reporter activation – B. multivorans, primary screen (AID 1918990)
- condition: 18 h, hits give high values
The whole screen tested about 29,000 compounds, of which about 85 (0.3%) were called active. The list comes from a sample in which actives are over-represented; it also holds close analogues and randomly drawn compounds.
So I've got a bunch of compounds here, and I need their z-score values.
Numbers only.

[
  {
    "compound": "COC(=O)c1ccccc1NS(=O)(=O)c1ccc2c(c1)CCCN2C(C)=O",
    "measurement_kind": "z-score",
    "recorded_number": -1.34
  },
  {
    "compound": "CCn1cc(C(=O)N(C)Cc2ccccc2)c(=O)c2cc(S(=O)(=O)N3CCCCCC3)ccc21",
    "measurement_kind": "z-score",
    "recorded_number": -2.08
  },
  {
    "compound": "Cc1ccc(-n2nc(CO)c(C(=O)NCCc3ccccc3)n2)cc1",
    "measurement_kind": "z-score",
    "recorded_number": -0.78
  }
]

Hi! Can you tell me z-score for each of these compounds?
1. O=C(c1ccnc(CC2COc3ccccc3C2)c1)N1CCOCC1 (stereo unspecified)
2. CCCCNC(=O)c1ccc2c(c1)NC(=O)C(C(C)C)N2 (stereo unspecified)
3. CC(C)(C)C(Cn1ccnc1)NC(=O)C=Cc1cc(CO)cs1 (stereo unspecified)

1: 1.09; 2: 0.08; 3: 0.54

* * *

- procedure_details: fixK promoter GFP reporter activation – B. multivorans, primary screen (AID 1918990)
- condition: 18 h, hits give high values
In all, about 29,000 compounds went through this assay and about 85 (0.3%) were called active. The entries come from a sample that favours actives as a whole.
measurement_kind: z-score

Sample answers from the record:
[
  {
    "compound": "Cc1cccc(C)c1OCC(=O)NC(Cc1c[nH]c2ccccc12)C(=O)O (stereo not given)",
    "z-score": "0.01 (inactive)"
  },
  {
    "compound": "COCCN(CCOC)C(=O)c1ccc(-c2ncccc2Cl)cc1",
    "z-score": "0.44 (inactive)"
  },
  {
    "compound": "CC(C)(C)NC(=O)CSc1nc(-c2ccc(F)cc2)cc(C(F)(F)F)n1",
    "z-score": "-1.55 (inactive)"
  },
  {
    "compound": "CC(C)c1ccc2oc(-c3cc(NC(=O)c4cccs4)ccc3Cl)nc2c1",
    "z-score": "0.16 (inactive)"
  }
]

Here are 3 compounds. What values of z-score were reported for them?
1. COc1ccc(-c2noc(CSc3nc(C)cc(=O)[nH]3)n2)cc1OC
2. Cc1ccc(NC(=O)C(Cc2ccccc2)NS(=O)(=O)c2ccc3c(c2)oc(=O)n3C)cc1C (stereo not given)
3. CC(=O)N1CCCCC1C(=O)Nc1cccc(-n2cccn2)c1 (stereo not given)

-1.97 (inactive)
0.54 (inactive)
-4.62 (inactive)

// for each compound in input: emit z-score
1. Cc1ccc(CN(C)S(=O)(=O)c2c(Cl)nc3sccn23)o1
2. CC(=O)c1c(C)n(S(=O)(=O)c2ccc(Cl)cc2)c2ccc(NS(=O)(=O)c3ccc(Cl)cc3)cc12
3. COc1ccc(NC(=O)c2cnc(Nc3ccc(C)c(Cl)c3)c3ccccc23)cc1OC

1: 1.01 (inactive); 2: -0.71 (inactive); 3: 0.07 (inactive)

* * *

- procedure_details: fixK promoter GFP reporter activation – B. multivorans, primary screen (AID 1918990)
- condition: 18 h, hits give high values
The campaign covered roughly 29,000 compounds. About 85 (0.3%) were called active. For the sample, actives were picked, then their nearest neighbours and some compounds at random.
I'd appreciate it if you could supply z-score values for the items below.
Numbers only.

[
  {
    "compound": "CC(=O)c1ccc(N2CCN(c3nc4c(S(=O)(=O)c5ccccc5)nnn4c4ccc(Cl)cc34)CC2)cc1",
    "recorded_number": 0.23
  },
  {
    "compound": "CCCn1nccc1S(=O)(=O)NCc1csc(-c2cnccn2)n1",
    "recorded_number": -1.08
  },
  {
    "compound": "COCCCNC(=O)c1c(NC(=O)c2cc(=O)c3cc(C)c(C)cc3o2)sc2c1CCCC2",
    "recorded_number": -0.42
  },
  {
    "compound": "COC(=O)c1ccc(N2CCN(C(=O)c3csc(C)n3)CC2)cc1",
    "recorded_number": -0.55
  },
  {
    "compound": "CCc1ccc(CN(Cc2ccco2)C(=O)c2ccccc2Cl)cc1",
    "recorded_number": 1.11
  },
  {
    "compound": "COc1ccc(-c2noc(CCC(=O)N(C)c3ccccc3C)n2)cc1",
    "recorded_number": -1.83
  },
  {
    "compound": "C#CC(C)(CC)NC(=O)Cn1nnc(-c2ccc(OCc3c(F)cccc3Cl)cc2)n1 (stereo unspecified)",
    "recorded_number": 0.9
  },
  {
    "compound": "O=C(NC1CCCC1Cc1ccc(F)cc1)c1cccc(=O)[nH]1 (stereo unspecified)",
    "recorded_number": 0.15
  },
  {
    "compound": "Cc1ccc2nc(-c3ccc(O)cc3)c(Nc3ccc4c(c3)OCO4)n2c1",
    "recorded_number": 0.53
  },
  {
    "compound": "CN(Cc1ccccc1)C(=O)c1cc2c(=O)n(C)c3ccccc3c2s1",
    "recorded_number": 0.14
  }
]

// below: z-score requested for another compound
# return recorded z-score for entry CCCC(=O)Nc1cc2nn(-c3ccccc3)nc2cc1C
-0.72

From: PubChem BioAssay AID1918990
